System: Leptosphaeria nodorum
Assay: Leptosphaeria nodorum test (wheat)/preventive
Type: in vivo
Conditions: 250 ppm a.i., preventive, 8 days after inoculation
Assign Efficacy in % found to each entry below.
One number for each entry, in %.

Take a look at these entries with their results.
>  <molecule>
Cc1cc(OC(C)C)ccc1C(=O)C(C)(C)NC(=O)c1sccc1C

>  <Efficacy in % found, %>
25

$$$$
>  <molecule>
OC(c1cccnc1)c1c(-c2ccc(Cl)cc2F)noc1-c1ccc(F)cc1F (stereo not drawn)

>  <Efficacy in % found, %>
88

$$$$
>  <molecule>
CC1(C)N=C(c2cnc3ccccc3c2)c2cccc(F)c2C1(C)C

>  <Efficacy in % found, %>
75

$$$$
>  <molecule>
CC1(C)N=C(c2cnc3ccccc3c2)c2cccc(F)c2C1(F)F

>  <Efficacy in % found, %>
75

$$$$
>  <molecule>
CNC(=O)C(OC)c1ccccc1COc1cc(C)ccc1C (stereo not drawn)

>  <Efficacy in % found, %>
25

$$$$

Turning now to a further record.
Ask: Bench note: what Efficacy in % found did CC1(C)N=C(c2cnc3ccccc3c2)c2ccccc2C1(F)F show?
Result: 88
